System Under Test: hCGRP receptor (CALCRL:RAMP1) (Homo sapiens, UniProt O60894+Q16602)
Construct: host or cells: GeneBLAzer CALCRL:RAMP1-CRE-bla Freestyle 293F
Sequence (Q16602 23-461): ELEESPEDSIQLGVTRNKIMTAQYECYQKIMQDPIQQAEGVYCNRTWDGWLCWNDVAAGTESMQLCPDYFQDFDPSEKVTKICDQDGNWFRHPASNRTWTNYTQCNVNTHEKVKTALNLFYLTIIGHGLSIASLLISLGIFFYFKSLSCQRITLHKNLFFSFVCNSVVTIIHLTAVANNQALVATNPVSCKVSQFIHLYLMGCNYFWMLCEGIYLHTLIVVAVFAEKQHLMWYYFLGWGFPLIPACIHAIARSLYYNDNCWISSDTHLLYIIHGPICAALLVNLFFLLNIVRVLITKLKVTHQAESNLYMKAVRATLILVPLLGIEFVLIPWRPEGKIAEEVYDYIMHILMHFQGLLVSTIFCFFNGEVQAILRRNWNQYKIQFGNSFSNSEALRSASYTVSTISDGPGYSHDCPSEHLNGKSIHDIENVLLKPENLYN
Sequence (O60894 27-148): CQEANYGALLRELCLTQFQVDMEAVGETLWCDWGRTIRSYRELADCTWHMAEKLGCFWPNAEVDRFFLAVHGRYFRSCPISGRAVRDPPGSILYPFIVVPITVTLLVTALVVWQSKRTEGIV
Assay Info: CGRP receptor antagonist activity measured by cAMP assay (HTRF)
Assay type: cell-based
Experimental Context: GeneBLAzer CALCRL:RAMP1-CRE-bla Freestyle 293F cells; agonist human α-CGRP; 30 minutes; read-out: hCGRP-R IC50 Ave
Numbered stars: 1 amine (or outer) side, 2 acyl side, 3 side chain; on linkers, the order of the positions; unused ones are H or OH. Bridge positions count the residues as written; N and C are the ends. Square brackets hold non-standard residues; d marks the D form. Peptide text beside a SMILES is read from it. * marks the point of attachment. X5 = O=C([C@H](Cc1ccc(CO)cc1)N[*:1])[*:2]; X16 = CCN(CC)CC[C@H](N[*:1])C(=O)[*:2]; Imidazole4carbonyl = O=C(c1cnc[nH]1)*; Picolinoyl(5-F) = O=C(c1ccc(F)cn1)*; Benzoyl(4-F) = O=C(c1ccc(F)cc1)*; 3Pal = N[C@@H](Cc1cccnc1)C(=O)O; Picolinoyl = O=C(c1ccccn1)*; ΔPro = O=C(O)[C@@H]1C=CCN1; Orn = NCCC[C@H](N)C(=O)O; X8 = CC(C)NCCOCCOCC(=O)*; X1 = O=C(c1ncccc1F)*
Parameter: pIC50
On this scale, pIC50 is minus log10 of a concentration expressed in M (mol/L).

These recorded examples may help you get a feel for the data.
[
  {
    "Compound": "CC(C)NCCOCCOCC(=O)NCCC[C@@H]1NC(=O)[C@@H](NC(=O)[C@H](Cc2ccc(O)cc2)NC(=O)[C@H](NC(=O)c2ccc(F)cn2)C(C)C)CSSC[C@@H](C(=O)N[C@@H](Cc2cccnc2)C(N)=O)NC(=O)[C@H](Cc2ccccc2)NC(=O)[C@@H]2CCCN2C(=O)CNC(=O)[C@H](C(C)C)NC(=O)[C@H](CC(=O)O)NC1=O [Compound 13] ({Picolinoyl(5-F)}-[dV]YC[Orn](X8)DVGPFC[3Pal]-NH2; disulfide 3-10)",
    "Reported Result": 10.00
  },
  {
    "Compound": "CC(C)[C@@H]1NC(=O)[C@H](CC(=O)O)NC(=O)[C@H](CCCNC(=N)N)NC(=O)[C@@H](NC(=O)[C@H](Cc2ccc(O)cc2)NC(=O)[C@H](NC(=O)c2cnc[nH]2)C(C)C)CSSC[C@@H](C(=O)N[C@@H](Cc2cccnc2)C(N)=O)NC(=O)[C@H](Cc2ccccc2)NC(=O)[C@@H]2CCCN2C(=O)CNC1=O [Compound 47] (Imidazole4carbonyl-[dV]YCRDVGPFC[3Pal]-NH2; disulfide 3-10)",
    "Reported Result": 9.80
  },
  {
    "Compound": "CC(C)[C@@H]1NC(=O)[C@H](CC(=O)O)NC(=O)[C@H](CCCNC(=N)N)NC(=O)[C@@H](NC(=O)[C@H](Cc2ccc(O)cc2)NC(=O)[C@H](NC(=O)c2ccc(F)cc2)C(C)C)CSSC[C@@H](C(=O)N[C@@H](Cc2cccnc2)C(N)=O)NC(=O)[C@H](Cc2ccccc2)NC(=O)[C@@H]2C=CCN2C(=O)CNC1=O [Compound 4] ({Benzoyl(4-F)}-[dV]YCRDVG[ΔPro]FC[3Pal]-NH2; disulfide 3-10)",
    "Reported Result": 9.77
  },
  {
    "Compound": "CCN(CC)CC[C@@H]1NC(=O)[C@@H](NC(=O)[C@H](Cc2ccc(O)cc2)NC(=O)[C@H](NC(=O)c2ccccn2)C(C)C)CSSC[C@@H](C(=O)N[C@@H](Cc2cccnc2)C(N)=O)NC(=O)[C@H](Cc2ccccc2)NC(=O)[C@@H]2CCCN2C(=O)CNC(=O)[C@H](C(C)C)NC(=O)[C@H](CC(=O)O)NC1=O [Compound 8] (Picolinoyl-[dV]YC[X16]DVGPFC[3Pal]-NH2; disulfide 3-10)",
    "Reported Result": 10.05
  }
]

Now examine the next entry.
// CC(C)[C@@H]1NC(=O)[C@H](CC(=O)O)NC(=O)[C@H](CCCN)NC(=O)[C@@H](NC(=O)[C@H](Cc2ccc(O)cc2)NC(=O)[C@H](NC(=O)c2ncccc2F)C(C)C)CSSC[C@@H](C(=O)N[C@@H](Cc2cccnc2)C(N)=O)NC(=O)[C@H](Cc2ccc(CO)cc2)NC(=O)[C@@H]2CCCN2C(=O)CNC1=O [Compound 29] (X1-[dV]YC[Orn]DVGP[X5]C[3Pal]-NH2; disulfide 3-10) : pIC50 value = 10.05

---

System Under Test: hAM2 receptor (CALCRL:RAMP3) (Homo sapiens, UniProt O60896+Q16602)
Construct: expressed in transfected cells; host or cells: GeneBLAzer CALCRL:RAMP3-CRE-bla Freestyle 293F
Sequence (Q16602 23-461): as the sequence (Q16602 23-461) above
Sequence (O60896 24-148): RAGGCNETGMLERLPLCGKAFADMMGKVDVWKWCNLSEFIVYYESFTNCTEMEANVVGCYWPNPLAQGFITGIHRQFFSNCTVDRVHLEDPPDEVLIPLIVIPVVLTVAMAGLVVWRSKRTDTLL
Assay Info: AM2 receptor antagonist activity measured by cAMP assay (HTRF)
Type: cell-based
Experimental Context: GeneBLAzer CALCRL:RAMP3-CRE-bla Freestyle 293F cells; agonist human adrenomedullin; read-out: hAM2-R IC50 Ave
Numbered stars: 1 amine (or outer) side, 2 acyl side, 3 side chain; on linkers, the order of the positions; unused ones are H or OH. Bridge positions count the residues as written; N and C are the ends. Square brackets hold non-standard residues; d marks the D form. Peptide text beside a SMILES is read from it. * marks the point of attachment. Phe(3-CH2NH2) = O=C([C@H](Cc1cccc(CN[*:3])c1)N[*:1])[*:2]; Phe(4-CH2NH2) = NCc1ccc(C[C@H](N)C(=O)O)cc1; Phe(3-CN) = N#Cc1cccc(C[C@H](N)C(=O)O)c1; Benzoyl(4-F) = O=C(c1ccc(F)cc1)*; 3Pal = N[C@@H](Cc1cccnc1)C(=O)O
// assign MET if IC50 falls strictly below 30 nM, else NOT MET (ties count as NOT MET)

[
  {
    "Compound": "CC(C)[C@@H]1NC(=O)[C@H](CC(=O)O)NC(=O)[C@H](CCCNC(=N)N)NC(=O)[C@@H](NC(=O)[C@H](Cc2ccc(O)cc2)NC(=O)[C@H](NC(=O)c2ccc(F)cc2)C(C)C)CSSC[C@@H](C(=O)N[C@@H](Cc2cccnc2)C(N)=O)NC(=O)[C@H](Cc2ccc(CN)cc2)NC(=O)[C@@H]2CCCN2C(=O)CNC1=O [Compound 20] ({Benzoyl(4-F)}-[dV]YCRDVGP[Phe(4-CH2NH2)]C[3Pal]-NH2; disulfide 3-10)",
    "Class": "NOT MET"
  }
]

Consider CC(C)[C@@H]1NC(=O)[C@H](CC(=O)O)NC(=O)[C@H](CCCNC(=N)N)NC(=O)[C@@H](NC(=O)[C@H](Cc2ccc(O)cc2)NC(=O)[C@H](NC(=O)c2ccc(F)cc2)C(C)C)CSSC[C@@H](C(=O)N[C@@H](Cc2cccnc2)C(N)=O)NC(=O)[C@H](Cc2cccnc2)NC(=O)[C@@H]2CCCN2C(=O)CNC1=O [Compound 2] ({Benzoyl(4-F)}-[dV]YCRDVGP[3Pal]C[3Pal]-NH2; disulfide 3-10) . Does its IC50 lie strictly below 30 nM?
NOT MET

Below 30 nM on IC50? Entry CC(C)[C@@H]1NC(=O)[C@H](CC(=O)O)NC(=O)[C@H](CCCNC(=N)N)NC(=O)[C@@H](NC(=O)[C@H](Cc2ccc(O)cc2)NC(=O)[C@H](NC(=O)c2ccc(F)cc2)C(C)C)CSSC[C@@H](C(=O)N[C@@H](Cc2cccnc2)C(N)=O)NC(=O)[C@H](Cc2cccc(CN)c2)NC(=O)[C@@H]2CCCN2C(=O)CNC1=O [Compound 5] ({Benzoyl(4-F)}-[dV]YCRDVGP[Phe(3-CH2NH2)]C[3Pal]-NH2; disulfide 3-10)
MET

# check: IC50 < 30 nM for CC(C)[C@@H]1NC(=O)[C@H](CC(=O)O)NC(=O)[C@H](CCCNC(=N)N)NC(=O)[C@@H](NC(=O)[C@H](Cc2ccc(O)cc2)NC(=O)[C@H](NC(=O)c2ccc(F)cc2)C(C)C)CSSC[C@@H](C(=O)N[C@@H](Cc2cccnc2)C(N)=O)NC(=O)[C@H](Cc2cccc(C#N)c2)NC(=O)[C@@H]2CCCN2C(=O)CNC1=O [Compound 21] ({Benzoyl(4-F)}-[dV]YCRDVGP[Phe(3-CN)]C[3Pal]-NH2; disulfide 3-10)
NOT MET

---

System Under Test: hCGRP receptor (CALCRL:RAMP1) (Homo sapiens, UniProt O60894+Q16602)
Construct: host or cells: GeneBLAzer CALCRL:RAMP1-CRE-bla Freestyle 293F
Assay Info: CGRP receptor antagonist activity measured by cAMP assay (HTRF)
Type: cell-based
Experimental Context: GeneBLAzer CALCRL:RAMP1-CRE-bla Freestyle 293F cells; agonist human α-CGRP; 30 minutes; read-out: hCGRP-R IC50 Ave
Numbered stars: 1 amine (or outer) side, 2 acyl side, 3 side chain; on linkers, the order of the positions; unused ones are H or OH. Bridge positions count the residues as written; N and C are the ends. Square brackets hold non-standard residues; d marks the D form. Peptide text beside a SMILES is read from it. * marks the point of attachment. Phe(3-CH2NH2) = O=C([C@H](Cc1cccc(CN[*:3])c1)N[*:1])[*:2]; Phe(2-CONH2) = NC(=O)c1ccccc1C[C@H](N)C(=O)O; X5 = O=C([C@H](Cc1ccc(CO)cc1)N[*:1])[*:2]; Picolinoyl(5-F) = O=C(c1ccc(F)cn1)*; Orn(iPr) = CC(C)NCCC[C@H](N)C(=O)O; 3Pal = N[C@@H](Cc1cccnc1)C(=O)O; Picolinoyl = O=C(c1ccccn1)*; ΔPro = O=C(O)[C@@H]1C=CCN1; Orn = NCCC[C@H](N)C(=O)O; X6 = O=C(c1ccncn1)*
Parameter: IC50 (pM)
API: value field is a number in pM; no unit string.

[
  {
    "Compound": "CC(C)NCCC[C@@H]1NC(=O)[C@@H](NC(=O)[C@H](Cc2ccc(O)cc2)NC(=O)[C@H](NC(=O)c2ccccn2)C(C)C)CSSC[C@@H](C(=O)N[C@@H](Cc2cccnc2)C(N)=O)NC(=O)[C@H](Cc2ccc(CO)cc2)NC(=O)[C@@H]2C=CCN2C(=O)CNC(=O)[C@H](C(C)C)NC(=O)[C@H](CC(=O)O)NC1=O [Compound 69] (Picolinoyl-[dV]YC[Orn(iPr)]DVG[ΔPro][X5]C[3Pal]-NH2; disulfide 3-10)",
    "IC50, pM": 130
  },
  {
    "Compound": "CC(C)[C@@H]1NC(=O)[C@H](CC(=O)O)NC(=O)[C@H](CCCN)NC(=O)[C@@H](NC(=O)[C@H](Cc2ccc(O)cc2)NC(=O)[C@H](NC(=O)c2ccc(F)cn2)C(C)C)CSSC[C@@H](C(=O)N[C@@H](Cc2cccnc2)C(N)=O)NC(=O)[C@H](Cc2ccc(CO)cc2)NC(=O)[C@@H]2CCCN2C(=O)CNC1=O [Compound 56] ({Picolinoyl(5-F)}-[dV]YC[Orn]DVGP[X5]C[3Pal]-NH2; disulfide 3-10)",
    "IC50, pM": 170
  }
]

Okay, next one:
Lab note: CC(C)[C@@H]1NC(=O)[C@H](CC(=O)O)NC(=O)[C@H](CCCNC(=N)N)NC(=O)[C@@H](NC(=O)[C@H](Cc2ccccc2C(N)=O)NC(=O)[C@H](NC(=O)c2ccncn2)C(C)C)CSSC[C@@H](C(=O)N[C@@H](Cc2cccnc2)C(N)=O)NC(=O)[C@H](Cc2cccc(CN)c2)NC(=O)[C@@H]2C=CCN2C(=O)CNC1=O [Compound 31] (X6-[dV][Phe(2-CONH2)]CRDVG[ΔPro][Phe(3-CH2NH2)]C[3Pal]-NH2; disulfide 3-10) gave IC50 of 120
